Listed molecules paired with reported GI50
# Test system: SK-MEL-28
# test.protocol: SRB colorimetric assay of cell growth and viability, SK-MEL-28
# Type: cell-based, human
# reported.conditions: 48 hours exposure
Where a SMILES comes first, the peptide text is derived from it. Bridges are numbered along the chain shown (N, C = ends). [ ]: non-standard residue; d: D form. The star is where a group is joined. d(aIle) = CC[C@H](C)[C@@H](N)C(=O)O; d(aThr) = C[C@@H](O)[C@@H](N)C(=O)O; hCha = N[C@@H](CCC1CCCCC1)C(=O)O; Hexanoyl(5-Me) = CC(C)CCCC(=O)*; Orn = NCCC[C@H](N)C(=O)O; Dhb = C/C=C(\N)C(=O)O
Answer with a number only, understood to be in µM.

Solved cases (5 shown):
| molecule | result.type | unit | numeric.value |
| --- | --- | --- | --- |
| C/C=C1\NC(=O)[C@H](Cc2ccccc2)NC(=O)[C@@H](C(C)C)NC(=O)[C@@H]([C@@H](C)CC)NC(=O)[C@H](NC(=O)[C@H](NC(=O)[C@H](CCCN)NC(=O)[C@H]2CCCN2C(=O)[C@H](NC(=O)[C@H](C)NC(=O)[C@@H](NC(=O)[C@H](NC(=O)CCCC(C)C)C(C)C)[C@@H](C)O)C(C)C)[C@@H](C)CC)[C@@H](C)OC(=O)[C@H](C(C)C)NC1=O [Compound 44, [Ala^11]-KF] ({Hexanoyl(5-Me)}-[dV]TA[dV][dP][Orn][d(aIle)][d(aThr)][d(aIle)][dV]F[Dhb]V; ester 8-C) | GI50 | µM | 3.69 |
| C/C=C1\NC(=O)[C@H](Cc2ccccc2)NC(=O)[C@@H](C(C)C)NC(=O)[C@@H]([C@@H](C)CC)NC(=O)[C@H](NC(=O)[C@H](NC(=O)[C@H](CCCCN)NC(=O)[C@H]2CCCN2C(=O)[C@H](NC(=O)[C@@H](NC(=O)[C@@H](NC(=O)[C@H](NC(=O)CC[C@@H](C)CC)C(C)C)[C@@H](C)O)C(C)C)C(C)C)[C@@H](C)CC)[C@@H](C)OC(=O)[C@H](C(C)C)NC1=O [Compound 30, [Lys^8, (4S)-MeHex^14]-KF] | GI50 | µM | 1.19 |
| C/C=C1\NC(=O)[C@H](Cc2ccccc2)NC(=O)[C@@H](C(C)C)NC(=O)[C@@H]([C@@H](C)CC)NC(=O)[C@H](NC(=O)[C@H](NC(=O)[C@H](CCCN)NC(=O)[C@H]2CCCN2C(=O)[C@H](NC(=O)[C@@H](NC(=O)[C@@H](NC(=O)[C@@H](CC(C)C)NC(=O)CCCC(C)C)[C@@H](C)O)C(C)C)C(C)C)[C@@H](C)CC)[C@@H](C)OC(=O)[C@H](C(C)C)NC1=O [Compound 35, [D-Leu^13]-KF] | GI50 | µM | 1.17 |
| C/C=C1\NC(=O)[C@H](Cc2ccccc2)NC(=O)[C@@H](C(C)C)NC(=O)[C@@H]([C@@H](C)CC)NC(=O)[C@H](NC(=O)[C@H](NC(=O)[C@H](CCCN)NC(=O)[C@H]2CCCN2C(=O)[C@H](NC(=O)[C@@H](NC(=O)[C@@H](NC(=O)[C@H](NC(=O)CCCNC(=N)N)C(C)C)[C@@H](C)O)C(C)C)C(C)C)[C@@H](C)CC)[C@@H](C)OC(=O)[C@H](C(C)C)NC1=O [Compound 29, [4-GuBut^14]-KF] | GI50 | µM | 6.7 |
| C/C=C1\NC(=O)[C@H](Cc2ccccc2)NC(=O)[C@@H](C(C)C)NC(=O)[C@@H]([C@@H](C)CC)NC(=O)[C@H](NC(=O)[C@H](NC(=O)[C@H](CCCN)NC(=O)[C@H]2CCCN2C(=O)[C@H](NC(=O)[C@H](CCC2CCCCC2)NC(=O)[C@@H](NC(=O)[C@H](NC(=O)CCCC(C)C)C(C)C)[C@@H](C)O)C(C)C)[C@@H](C)CC)[C@@H](C)OC(=O)[C@H](C(C)C)NC1=O [Compound 9, [hCh^11]-KF] ({Hexanoyl(5-Me)}-[dV]T[hCha][dV][dP][Orn][d(aIle)][d(aThr)][d(aIle)][dV]F[Dhb]V; ester 8-C) | GI50 | µM | 0.321 |

Query: // fetch GI50 given entry C/C=C1\NC(=O)[C@H](Cc2ccccc2)NC(=O)[C@@H](C(C)C)NC(=O)[C@@H]([C@@H](C)CC)NC(=O)[C@H](NC(=O)[C@H](NC(=O)[C@H](CCCN)NC(=O)[C@H]2CCCN2C(=O)[C@H](NC(=O)[C@@H](NC(=O)[C@@H](NC(=O)[C@H](NC(=O)CCCCCCCCCCCCCCCCCCC)C(C)C)[C@@H](C)O)C(C)C)C(C)C)[C@@H](C)CC)[C@@H](C)OC(=O)[C@H](C(C)C)NC1=O [Compound 13, [Icos^14]-KF]
Reply: 1.25

Query: In one line, give reported GI50 of the entry C/C=C1\NC(=O)[C@H](Cc2ccccc2)NC(=O)[C@@H](C(C)C)NC(=O)[C@@H]([C@@H](C)CC)NC(=O)[C@H](NC(=O)[C@H](NC(=O)[C@H](CCCN)NC(=O)[C@H]2CCCN2C(=O)[C@H](NC(=O)CNC(=O)[C@@H](NC(=O)[C@H](NC(=O)CCCC(C)C)C(C)C)[C@@H](C)O)C(C)C)[C@@H](C)CC)[C@@H](C)OC(=O)[C@H](C(C)C)NC1=O [Compound 42, [Gly^11]-KF] ({Hexanoyl(5-Me)}-[dV]TG[dV][dP][Orn][d(aIle)][d(aThr)][d(aIle)][dV]F[Dhb]V; ester 8-C) .
Reply: 6.96

====

# Tested on: SK-BR-3
# test.protocol: SRB colorimetric assay of cell growth and viability, SK-BR-3
# Format: cell-based, human
# reported.conditions: 48 hours exposure
Where a SMILES comes first, the peptide text is derived from it. Bridges are numbered along the chain shown (N, C = ends). [ ]: non-standard residue; d: D form. The star is where a group is joined. d(aIle) = CC[C@H](C)[C@@H](N)C(=O)O; d(aThr) = C[C@@H](O)[C@@H](N)C(=O)O; Hexanoyl(5-Me) = CC(C)CCCC(=O)*; Orn = NCCC[C@H](N)C(=O)O; Dhb = C/C=C(\N)C(=O)O
result.type: TGI SK-BR-3 (Molar)
Numbers only here, please. The scale is Molar.

| molecule | TGI SK-BR-3 (Molar) |
| --- | --- |
| C/C=C1\NC(=O)[C@H](Cc2ccccc2)NC(=O)[C@@H](C(C)C)NC(=O)[C@@H]([C@@H](C)CC)NC(=O)[C@H](NC(=O)[C@H](NC(=O)[C@H](CCCN)NC(=O)[C@H]2CCCN2C(=O)[C@H](NC(=O)[C@H](CCC(N)=O)NC(=O)[C@@H](NC(=O)[C@H](NC(=O)CCCC(C)C)C(C)C)[C@@H](C)O)C(C)C)[C@@H](C)CC)[C@@H](C)OC(=O)[C@H](C(C)C)NC1=O [Compound 48, [Gln^11]-KF] ({Hexanoyl(5-Me)}-[dV]TQ[dV][dP][Orn][d(aIle)][d(aThr)][d(aIle)][dV]F[Dhb]V; ester 8-C) | 6.64E−06 |

Moving on to another molecule below.
Query: State, in one line, measured TGI SK-BR-3 of C/C=C1\NC(=O)[C@H](Cc2ccccc2)NC(=O)[C@@H](C(C)C)NC(=O)[C@@H]([C@@H](C)CC)NC(=O)[C@H](NC(=O)[C@H](NC(=O)[C@H](CCCN)NC(=O)[C@H]2CCCN2C(=O)[C@H](NC(=O)[C@@H](NC(=O)[C@@H](NC(=O)[C@H](NC(=O)CCCCCCCCCCCCCCCCCCC)C(C)C)[C@@H](C)O)C(C)C)C(C)C)[C@@H](C)CC)[C@@H](C)OC(=O)[C@H](C(C)C)NC1=O [Compound 13, [Icos^14]-KF]
Reply: 1.86E−06

====

Quick reference for CC50 among some compounds
# Tested on: SK-OV-3
# test.protocol: SRB colorimetric assay of cell growth and viability, SK-OV-3
# Assay type: cell-based, human
# reported.conditions: 48 hours exposure; read-out: LC50 SKOV-3
Where a SMILES comes first, the peptide text is derived from it. Bridges are numbered along the chain shown (N, C = ends). [ ]: non-standard residue; d: D form. The star is where a group is joined. d(aIle) = CC[C@H](C)[C@@H](N)C(=O)O; d(aThr) = C[C@@H](O)[C@@H](N)C(=O)O; Hexanoyl(5-Me) = CC(C)CCCC(=O)*; Myristoyl = CCCCCCCCCCCCCC(=O)*; Orn = NCCC[C@H](N)C(=O)O; Dhb = C/C=C(\N)C(=O)O
A number alone suffices; assume µM.

Some compounds with known CC50 results, for comparison:
| compound | numeric.value |
| --- | --- |
| C/C=C1\NC(=O)[C@H](Cc2ccccc2)NC(=O)[C@@H](C(C)C)NC(=O)[C@@H]([C@@H](C)CC)NC(=O)[C@H](NC(=O)[C@H](NC(=O)[C@H](CCCN)NC(=O)[C@H]2CCCN2C(=O)[C@H](NC(=O)CCCCCCCCCCCCC)C(C)C)[C@@H](C)CC)[C@@H](C)OC(=O)[C@H](C(C)C)NC1=O [Compound 32] (Myristoyl-[dV][dP][Orn][d(aIle)][d(aThr)][d(aIle)][dV]F[Dhb]V; ester 5-C) | 7.83 |
| C/C=C1\NC(=O)[C@H](Cc2ccccc2)NC(=O)[C@@H](C(C)C)NC(=O)[C@@H]([C@@H](C)CC)NC(=O)[C@H](NC(=O)[C@H](NC(=O)[C@H](CCCN)NC(=O)[C@H]2CCCN2C(=O)[C@H](NC(=O)CCCC(C)C)C(C)C)[C@@H](C)CC)[C@@H](C)OC(=O)[C@H](C(C)C)NC1=O [Compound 31, [noVal^11, noThr^12, noD-Val^13]-KF] ({Hexanoyl(5-Me)}-[dV][dP][Orn][d(aIle)][d(aThr)][d(aIle)][dV]F[Dhb]V; ester 5-C) | 8.49 |
| C/C=C1\NC(=O)[C@H](Cc2ccccc2)NC(=O)[C@@H](C(C)C)NC(=O)[C@@H]([C@@H](C)CC)NC(=O)[C@H](NC(=O)[C@H](NC(=O)[C@H](CCC(=O)O)NC(=O)[C@H]2CCCN2C(=O)[C@H](NC(=O)[C@@H](NC(=O)[C@@H](NC(=O)[C@H](NC(=O)CCCC(C)C)C(C)C)[C@@H](C)O)C(C)C)C(C)C)[C@@H](C)CC)[C@@H](C)OC(=O)[C@H](C(C)C)NC1=O [Compound 4, [Glu^8]-KF] ({Hexanoyl(5-Me)}-[dV]TV[dV][dP]E[d(aIle)][d(aThr)][d(aIle)][dV]F[Dhb]V; ester 8-C) | 2.26 |

Please examine the following record next.
Query: // fetch CC50 given entry C/C=C1\NC(=O)[C@H](Cc2ccccc2)NC(=O)[C@@H](C(C)C)NC(=O)[C@@H]([C@@H](C)CC)NC(=O)[C@H](NC(=O)[C@H](NC(=O)[C@H](CCCN)NC(=O)[C@H]2CCCN2C(=O)[C@H](NC(=O)[C@@H](NC(=O)[C@@H](NC(=O)[C@H](NC(=O)CCCCC(C)(F)F)C(C)C)[C@@H](C)O)C(C)C)C(C)C)[C@@H](C)CC)[C@@H](C)OC(=O)[C@H](C(C)C)NC1=O [Compound 28, [6,6-dFHep^14]-KF]
Reply: 1.01

Recorded values, source patent US20070117743A1.
